Each recorded value in this set is attributed to PubChem BioAssay AID1996.

Conditions: buffer; pH 7.4; 200.0 µM
Endpoint Label: solubility kinetic (µg/mL)
Field format: number, assumed µg/mL, no unit text.

INPUT: Read the entry `O=C(COC(=O)CC1CCCC1)Nc1ccc(Cl)cn1` and write its reported solubility kinetic.
OUTPUT: 9.1

INPUT: Read the entry `c1ccc(-c2cc(-c3ccccc3)ncn2)cc1` and write its reported solubility kinetic.
OUTPUT: 4.6

INPUT: Read the entry `Cc1cc(C)c(S(=O)(=O)Nc2ccc3[nH]c(=O)[nH]c3c2)c(C)c1` and write its reported solubility kinetic.
OUTPUT: 2.8

INPUT: Read the entry CCCCCOC(=O)C1=C(C)NC(=O)NC1c1ccccc1 (stereo unspecified) and write its reported solubility kinetic.
OUTPUT: 4.9
